# TGT: DCAF15-RBM39 ternary complex (Homo sapiens, UniProt Q14498+Q66K64)
# Construct: (RRM2)
# Sequence (Q66K64 whole entry): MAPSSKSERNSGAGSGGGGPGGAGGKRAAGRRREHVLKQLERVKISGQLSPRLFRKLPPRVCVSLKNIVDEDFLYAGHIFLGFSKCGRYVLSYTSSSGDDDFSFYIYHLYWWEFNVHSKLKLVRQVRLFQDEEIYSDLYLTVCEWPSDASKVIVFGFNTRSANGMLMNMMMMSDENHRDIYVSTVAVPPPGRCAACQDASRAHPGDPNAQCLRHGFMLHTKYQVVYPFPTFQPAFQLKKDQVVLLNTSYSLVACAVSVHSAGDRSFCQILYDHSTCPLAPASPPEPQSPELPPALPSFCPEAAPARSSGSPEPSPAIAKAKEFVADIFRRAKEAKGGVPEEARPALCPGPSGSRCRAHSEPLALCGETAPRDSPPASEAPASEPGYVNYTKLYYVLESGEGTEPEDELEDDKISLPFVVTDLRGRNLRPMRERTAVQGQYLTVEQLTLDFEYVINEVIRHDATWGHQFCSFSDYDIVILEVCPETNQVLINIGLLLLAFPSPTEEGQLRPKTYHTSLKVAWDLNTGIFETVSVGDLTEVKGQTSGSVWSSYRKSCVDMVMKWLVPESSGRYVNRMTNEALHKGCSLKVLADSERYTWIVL
# Sequence (Q14498 250-328 limits assumed): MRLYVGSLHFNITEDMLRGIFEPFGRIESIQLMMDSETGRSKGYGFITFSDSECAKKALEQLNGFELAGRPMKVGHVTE
# Sequence (Q16531 whole entry partner): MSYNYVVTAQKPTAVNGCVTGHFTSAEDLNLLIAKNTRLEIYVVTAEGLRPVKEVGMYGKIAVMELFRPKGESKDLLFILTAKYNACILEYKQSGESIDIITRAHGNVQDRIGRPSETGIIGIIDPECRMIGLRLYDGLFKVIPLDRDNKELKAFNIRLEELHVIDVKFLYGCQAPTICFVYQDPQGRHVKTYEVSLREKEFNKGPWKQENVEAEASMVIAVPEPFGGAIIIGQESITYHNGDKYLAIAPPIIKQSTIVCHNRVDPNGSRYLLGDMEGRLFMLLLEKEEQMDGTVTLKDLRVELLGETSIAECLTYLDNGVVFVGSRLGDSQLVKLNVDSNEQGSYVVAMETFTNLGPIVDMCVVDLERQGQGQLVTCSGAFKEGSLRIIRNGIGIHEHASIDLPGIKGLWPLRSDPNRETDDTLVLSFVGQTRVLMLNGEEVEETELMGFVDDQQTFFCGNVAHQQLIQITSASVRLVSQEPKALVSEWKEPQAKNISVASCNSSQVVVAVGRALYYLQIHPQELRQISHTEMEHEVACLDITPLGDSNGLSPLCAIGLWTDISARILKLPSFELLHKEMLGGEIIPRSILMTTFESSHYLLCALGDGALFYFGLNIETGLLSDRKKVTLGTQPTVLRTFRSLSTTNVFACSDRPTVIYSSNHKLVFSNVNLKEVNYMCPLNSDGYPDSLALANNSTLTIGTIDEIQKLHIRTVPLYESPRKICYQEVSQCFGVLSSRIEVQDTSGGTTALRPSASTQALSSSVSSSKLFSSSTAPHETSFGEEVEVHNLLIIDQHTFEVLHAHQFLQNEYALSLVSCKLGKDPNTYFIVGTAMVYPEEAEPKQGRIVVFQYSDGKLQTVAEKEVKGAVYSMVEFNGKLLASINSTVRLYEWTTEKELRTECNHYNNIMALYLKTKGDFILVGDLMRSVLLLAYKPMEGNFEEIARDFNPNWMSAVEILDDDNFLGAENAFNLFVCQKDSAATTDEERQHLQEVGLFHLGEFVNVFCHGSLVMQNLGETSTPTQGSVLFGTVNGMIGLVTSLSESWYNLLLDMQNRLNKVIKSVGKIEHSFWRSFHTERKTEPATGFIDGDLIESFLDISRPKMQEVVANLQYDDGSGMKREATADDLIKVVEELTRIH
# METHOD: Compound-induced DCAF15-RBM39 ternary complex formation, AlphaLISA
# Type: biochemical
# CONDITION_NOTES: AlphaLISA, His-tagged DCAF15 complex and biotin-carrying RBM39; read-out: Ternary-RBM39 (RRM2) EC50
I'd appreciate it if you could supply EC50 values for the items below.

query: Any idea what EC50 was measured for CCCN(c1ccc(S(=O)(=O)Nc2ccc(Cl)c3c(Cl)c[nH]c23)cc1)S(=O)(=O)C1CCN(C)CC1 ?
result: < 1000 nM

query: Fill blank: measured EC50 of the compound CC(C)(C)OC(=O)NC1(CNS(=O)(=O)c2ccc(S(=O)(=O)Nc3ccc(Cl)c4c(Cl)c[nH]c34)cc2)CC1 is ____.
result: < 20000 nM

query: Request the reported EC50 associated with CCS(=O)(=O)CCNS(=O)(=O)c1ccc(S(=O)(=O)Nc2ccc(Cl)c3c(Cl)c[nH]c23)cc1
result: < 1000 nM

query: For CCCN(c1ccc(S(=O)(=O)Nc2ccc(Cl)c3c(Cl)c[nH]c23)cc1)S(=O)(=O)N1CCN(C)CC1 , what is its reported EC50?
result: < 1000 nM

query: Look up EC50 for this compound: O=S(=O)(Nc1ccc(Cl)c2c(Cl)c[nH]c12)c1ccc(S(=O)(=O)N2CCNCC2)cc1F
result: < 1000 nM

query: Record request: EC50 value, item O=S(=O)(NCCc1ccccn1)c1ccc(S(=O)(=O)Nc2ccc(Cl)c3c(Cl)c[nH]c23)cc1
result: < 5000 nM

query: Which EC50 reading was recorded for the compound CCCN(C(C)=O)c1ccc(S(=O)(=O)Nc2ccc(Cl)c3c(Cl)c[nH]c23)cc1 ?
result: < 1000 nM

query: Given CCOC(=O)N1CCN(S(=O)(=O)c2ccc(S(=O)(=O)Nc3ccc(Cl)c4c(Cl)c[nH]c34)cc2)CC1 , state its recorded EC50.
result: < 5000 nM

query: Entry O=S(=O)(Nc1ccc(Cl)c2c(Cl)c[nH]c12)c1ccc(C(F)(F)C2CCNCC2)cc1 has what EC50?
result: < 1000 nM

query: So what does the record say about EC50 for CCCN(C1CCNCC1)S(=O)(=O)c1ccc(S(=O)(=O)Nc2ccc(Cl)c3c(Cl)c[nH]c23)cc1 ?
result: < 1000 nM

query: Quick one: EC50 for Cc1nc2c(n1C)CCN(S(=O)(=O)c1ccc(S(=O)(=O)Nc3ccc(Cl)c4c(Cl)c[nH]c34)cc1)C2 ?
result: < 5000 nM

query: // lookup EC50 for Cc1ccc(NS(=O)(=O)c2cc(F)cc(C#N)c2)c2[nH]cc(C#N)c12
result: < 1000 nM

query: Sample O=S(=O)(Nc1ccc(Cl)c2c(Cl)c[nH]c12)c1ccc(S(=O)(=O)N2CCC(Oc3cccnc3)CC2)cc1 — what was its EC50?
result: < 5000 nM

query: Record request: EC50 value, item Cc1ccc(NS(=O)(=O)c2cccc(-n3ccnn3)c2)c2[nH]cc(C#N)c12
result: < 1000 nM

query: // returns reported EC50 for input O=S(=O)(Nc1ccc(Cl)c2c(Cl)c[nH]c12)c1ccc(S(=O)(=O)N2CCCCC2)cc1
result: < 1000 nM

query: // EC50 lookup, key: O=S(=O)(Nc1ccc(Cl)c2c(Cl)c[nH]c12)c1ccc(S(=O)(=O)N2CCNCC2)cc1
result: < 1000 nM

query: Could you share which EC50 value was measured for COCCN1CCN(S(=O)(=O)c2ccc(S(=O)(=O)Nc3ccc(C)c4c(C#N)c[nH]c34)cc2)CC1 ?
result: < 1000 nM

query: What does the record list as EC50 for COc1cc(NS(=O)(=O)c2cccc(C#N)c2)c2[nH]cc(Cl)c2c1 ?
result: < 1000 nM

query: I have this compound here, Cc1ccc(NS(=O)(=O)c2ccc(S(=O)(=O)N3CCOCC3)cc2)c2[nH]cc(C#N)c12 , and I need its recorded EC50.
result: < 1000 nM

query: Need EC50, item CC1CNCCN1S(=O)(=O)c1ccc(S(=O)(=O)Nc2ccc(Cl)c3c(Cl)c[nH]c23)cc1 (stereo not shown)
result: < 1000 nM

query: For O=C(NS(=O)(=O)c1ccc(Br)s1)c1ccc(Cl)cc1Cl [Tasisulam, tasisulam, reference compound] , what is its reported EC50?
result: < 5000 nM

query: # lookup: EC50 of COC(=O)CNS(=O)(=O)c1ccc(S(=O)(=O)Nc2ccc(Cl)c3c(Cl)c[nH]c23)cc1
result: < 1000 nM

query: Request the reported EC50 associated with Cc1ccc(NS(=O)(=O)c2ccc(S(=O)(=O)N3CC4CNCC4C3)cc2)c2[nH]cc(C#N)c12 (stereo not shown)
result: < 1000 nM

query: Item under review: Cc1ccnc(C(NS(=O)(=O)c2ccc(S(=O)(=O)Nc3ccc(Cl)c4c(Cl)c[nH]c34)cc2)C2CC2)c1 (stereo not shown) . Reported EC50?
result: < 5000 nM

query: State the recorded EC50 for this entry: Cc1ccc(NS(=O)(=O)c2ccc(S(=O)(=O)N3CCC(N)CC3)cc2)c2[nH]cc(C#N)c12
result: < 1000 nM

* * *

Kindly state pEC50 for each of the entries shown.
# TGT: DCAF15-RBM39 ternary complex (Homo sapiens, UniProt Q14498+Q66K64)
# Construct: (RRM2)
# METHOD: Compound-induced DCAF15-RBM39 ternary complex formation, AlphaLISA
# Format: biochemical
# CONDITION_NOTES: AlphaLISA, His-tagged DCAF15 complex and biotin-carrying RBM39; read-out: Ternary-RBM39 (RRM2) EC50
# Description: Compound-induced DCAF15-RBM39 ternary complex formation was monitored using AlphaLISA® assays (Perkin Elmer, Waltham, MA). […] 9.8 ul of this protein mixture was then mixed with the compounds in the assay plate and incubated for one hour at room temperature. Reaction mixtures with no compounds added were included as negative controls, while a His-tagged and biotinylated GST protein was included to track general assay performance. […]
pEC50: −log10 of the molar value.

query: Query (molecule): O=S(=O)(Nc1ccc(Cl)c2c(Cl)c[nH]c12)c1ccc(Br)cc1 [Compound 75] ; field requested: pEC50
result: > 5.30

query: Tell me the measured pEC50 of CCc1nc(CN(C)S(=O)(=O)c2ccc(S(=O)(=O)Nc3ccc(Cl)c4c(Cl)c[nH]c34)cc2)no1 [Compound 20] , please.
result: > 5.30

query: Give the measured pEC50 of Cc1ccc(NS(=O)(=O)c2cccc(C#N)c2)c2[nH]cc(C(F)F)c12 [Compound 100] .
result: > 5.30

query: What does the record list as pEC50 for O=S(=O)(Nc1ccc(Cl)c2c(Cl)c[nH]c12)c1ccc(S(=O)(=O)N2CCC(O)CC2)cc1 [Compound 38] ?
result: > 6.00

* * *

Give measured EC50 for each item. Keep answers brief.
# TGT: DCAF15-RBM39 ternary complex (Homo sapiens, UniProt Q14498+Q66K64)
# Construct: (RRM2)
# METHOD: Compound-induced DCAF15-RBM39 ternary complex formation, AlphaLISA
# Assay type: biochemical
# CONDITION_NOTES: AlphaLISA, His-tagged DCAF15 complex and biotin-carrying RBM39; read-out: Ternary-RBM39 (RRM2) EC50

query: Please give the measured EC50 for this molecule: O=S(=O)(Nc1ccc(Cl)c2c(Cl)c[nH]c12)c1cccc(S(=O)(=O)N2CCNCC2)c1
result: < 1000 nM

query: # lookup: EC50 of CC(C)C(=O)Nc1cccc(CNS(=O)(=O)c2ccc(S(=O)(=O)Nc3ccc(Cl)c4c(Cl)c[nH]c34)cc2)c1
result: < 20000 nM

query: Query (molecule): Cc1ccc(NS(=O)(=O)c2ccc(S(=O)(=O)N3C[C@H]4C[C@@H](C3)N4)cc2)c2[nH]cc(C#N)c12 ; field requested: EC50
result: < 1000 nM

query: Consider the molecule shown here: COCCc1cn(-c2cccc(S(=O)(=O)Nc3ccc(C)c4c(C#N)c[nH]c34)c2)nn1 What is its recorded EC50?
result: < 1000 nM

Data credit: patent US20240190821A1
